- Tested on: THRa homodimer (NR concentration 90 nM)
- Assay details: PBM binding z-score (relative to random genomic background probes); higher = stronger binding; sequences stand for … in GC…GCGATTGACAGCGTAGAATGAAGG
Give measured PBM binding z-score for each item. Keep answers brief.

{"columns": ["Record sequence", "PBM binding z-score"],
 "data": [
  ["TGTTGTAGATCAATAGAGGTTAAGAAAGTGCGCT", -0.0243]
]}

Provide the reported PBM binding z-score of each entry below, same order.
1. ATCTCTAGTTAAAAGTTCAGTGAATCCCGAGGAT
2. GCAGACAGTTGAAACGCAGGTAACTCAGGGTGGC
3. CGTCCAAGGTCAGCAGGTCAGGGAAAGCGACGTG
4. ATCGAAAGGACGACGAGGTGAGTATACACCGTTT
5. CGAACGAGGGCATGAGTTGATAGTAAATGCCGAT
6. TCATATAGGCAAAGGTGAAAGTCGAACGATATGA
7. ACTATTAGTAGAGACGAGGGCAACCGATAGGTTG
8. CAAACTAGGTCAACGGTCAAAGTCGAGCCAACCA

1: 0.242; 2: -0.565; 3: 2.59; 4: 0.601; 5: -0.0333; 6: -0.37; 7: 0.11; 8: 1.31

Provide the reported PBM binding z-score of each entry below, same order.
1. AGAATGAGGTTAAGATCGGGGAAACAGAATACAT
2. GCTAGGAGGACAAGGTCAGAGCTTTGTCCGTAGA
3. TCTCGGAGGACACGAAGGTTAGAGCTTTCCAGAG

0.927
1.21
0.277

The measurements presented in this section are drawn from the supplement of paper PMC6555819.
